B1: Limonene-1,2-epoxide hydrolase, Q9ZAG3 (parent)
chain: MTSKIEQPRWASKDSAAGAASTPDEKIVLEFMDALTSNDAAKLIEYFAEDTMYQNMPLPPAYGRDAVEQTLAGLFTVMSIDAVETFHIGSSNGLVYTERVDVLRALPTGKSYNLSILGVFQLTEGKITGWRDYFDLREFEEAVDLPLRG

# Variants of: B1
# ASSAY SETUP: Rhodococcus erythropolis; pH 7.1; Thermal; Fluorescence; Potassium phosphate 50mM; transition: 2; reversible: no; structure 1NWW; whole UniProt chain shown
MEASURE NAME: Tm (°C)
Reply with just the number (in °C).

SEQUENCE VARIANT	Tm [°C]
A17C L94C	56
A66P	49.6
A19K	51.3
Y62W	48.8
M32C V83C	44

Task: Entry D24R needs its Tm filled in; supply it.
Output: 45

Task: Entry A48C K126C needs its Tm filled in; supply it.
Output: 53

Task: Entry T85I needs its Tm filled in; supply it.
Output: 54.6

Task: Entry S111K needs its Tm filled in; supply it.
Output: 46.5

Task: Entry T76K needs its Tm filled in; supply it.
Output: 50.3

Task: Entry I127F needs its Tm filled in; supply it.
Output: 46.3

Task: Entry L106R needs its Tm filled in; supply it.
Output: 46.5
